System: SK-OV-3 ovarian
experiment.summary: NCI-60 one-dose screen, 48 h (100 = growth as untreated, 0 = no growth, -100 = all killed)
experimental.conditions: 10 µM unless noted
The panel holds about 83,000 compounds, 20% with a hit somewhere; the sample as a whole holds those more often.
Mark yes (1) for reported growth of 80% or greater; mark no (0) for anything smaller.

Query: Item C[C@]12CC[C@@H]3c4ccc(O)c(N)c4CC[C@H]3[C@@H]1CC[C@@H]2O with growth of 80% or above?
Reply: yes (1)

Next:
Query: Does growth meet or surpass 80% for Nc1nc(Cl)cc(NCCCCNc2cc(Cl)nc(N)n2)n1 ?
Reply: yes (1)

Query: growth >= 80% for COc1ccc(Cn2cc3c(c2-c2cc(OC)c(OC)c(OC)c2)CCc2c(CO)noc2-3)cc1 ?
Reply: no (0)

Query: Textbook exercise: given the entry CCCN1C(=O)CSC1=Nc1ccc2cc3ccc(N=C4SCC(=O)N4CCC)cc3nc2c1 , state whether its growth is greater than or equal to 80%.
Reply: no (0)

Query: Is growth at least 80%? Consider O=c1c2ccccc2sc2c(N3CCCC3)nc3ccccc3c12
Reply: yes (1)

Query: Quick check: does C=CCn1c(SCC(=O)Nc2ccc(/C(C)=N\O)cc2)nnc1-c1cc(-c2ccc(OC)cc2)nc2ccccc12 have growth greater than or equal to 80%?
Reply: no (0)

Query: // inclusive: growth at least 80%? input: C=CC(=O)Nc1cccc(Nc2nc(Nc3ccc(OCCOC(F)F)cc3)ncc2F)c1
Reply: no (0)

---

Test system: SW-620 colon
experiment.summary: NCI-60 one-dose screen, 48 h (100 = growth as untreated, 0 = no growth, -100 = all killed)
experimental.conditions: 10 µM unless noted
The panel holds about 83,000 compounds, 20% with a hit somewhere; the sample as a whole holds those more often. Calls of active or inactive are those of the source. The calls were made as follows: active = growth percent below 10; inactive = the rest.
Listing of entries alongside the reported growth.

Worked cases, growth given:
Query: Any idea what growth was measured for CC(C)NCC(O)COc1ccc(CC(N)=O)cc1 (stereo not given) ?
Reply: 100% (inactive)

Query: Which growth value is on record for O=C(NCCNc1nccc(-c2c(-c3cccc(O)c3)nc3sccn23)n1)c1ccc(N2CCOCC2)c(C(F)(F)F)c1 ?
Reply: 111% (inactive)

Query: growth lookup needed for Cn1c(I)c(C#C[Si](C)(C)C)c(=O)[nH]c1=O , thanks.
Reply: -66.5% (active)

---
Query: Find the recorded growth belonging to C[C@]12O[C@H]1[C@H](O)c1c(cc(O)c3c1C(=O)c1cccc(O)c1-3)C2=O and report it.
Reply: 113% (inactive)

Query: Using the record for COc1ccc(Cl)cc1NC(=O)c1cc2c([nH]1)-c1nc(N)sc1CCC2 , report its growth.
Reply: 107% (inactive)

Query: What value of measured growth is listed for Cc1cc[n+](CCCC[n+]2ccc(C)cc2)cc1 ?
Reply: 103% (inactive)

Query: Consider the compound shown here: O=C(NCCNc1nccc(-c2c(-c3cccc(O)c3)nc3sccn23)n1)c1ccccc1 What is its recorded growth?
Reply: 78.2% (inactive)

Query: Please give the measured growth for this compound: COC(=O)Nc1nc2ccc(Sc3ccccc3)cc2[nH]1
Reply: 18.6% (inactive)

Query: So what does the record say about growth for OCc1cnccc1NC12CC3CC(CC(C3)C1)C2 ?
Reply: 103% (inactive)

Query: For the compound shown here, CC(C)(c1ccc(OCC(O)CNCc2ccco2)cc1)c1ccc(OCC(O)CNCc2ccco2)cc1 (stereo not given) , give the reported growth.
Reply: 90.3% (inactive)

---

System: SF-268 CNS
experiment.summary: NCI-60 one-dose screen, 48 h (100 = growth as untreated, 0 = no growth, -100 = all killed)
experimental.conditions: 10 µM unless noted
Protocol: Cells are grown in 96 well plates and exposed to the test compound for 48 hours. Compounds are tested at a single concentration, which is 10^-5 M for most compounds. The reported endpoint is percent growth (GI% or GIPRCNT), where numbers from 0 - 100% represent growth inhibition, and numbers from -100% - 0 represent cell death. For example, a value of 40 represents 60% growth inhibition. A value of 0 means no net growth occurred over the course of the experiment. […]
Compounds without any hit were thinned out: in the full panel of roughly 83,000, 20% have a hit.
Flag rule - growth less than 80% flags Yes; the remaining entries get No.

Would you please look over these solved cases?
Query: Threshold test, growth < 80%: CC(C)CNCC(O)COc1ccc(C(C)(C)c2ccc(OCC(O)CNCC(C)C)cc2)cc1 (stereo not given)
Reply: Yes

Query: Could you please tell me whether growth recorded for COc1cccc(-c2nc3sccn3c2-c2ccnc(NCCNC(=O)c3ccccc3)n2)c1 is less than 80%?
Reply: No

Query: Does CC(C)NCC(O)COc1ccc(CC(N)=O)cc1 (stereo not given) have growth strictly under 80%?
Reply: No

Query: # check: growth < 80% for CCOc1ccc(NC2=C(Cl)C(=O)c3ccccc3C2=O)cc1
Reply: No

Query: Consider the compound COc1ccccc1NC(=O)COc1ccc(/C=C2/Oc3cc4occc4c(OC)c3C2=O)cc1OC . Is its growth strictly less than 80%?
Reply: No

Query: Given CNC(=O)NN , is recorded growth strictly lower than 80%?
Reply: No

Query: Does CC1CCC(C(C)C)C(NN)C1 (stereo not given) have growth strictly under 80%?
Reply: No

Query: I'd appreciate it if you could check whether O=C(Nc1cccc(-n2ccc3c(NC(=O)c4ccccc4)nccc32)c1)c1cc(N2CCOCC2)cc(C(F)(F)F)c1 has growth smaller than 80%.
Reply: Yes

Query: Field: below-cutoff. Rule: recorded growth strictly less than 80%. Subject: COc1ccc(C2CC(c3cc(Cl)c(C)cc3OC)=NN2c2ccc(S(N)(=O)=O)cc2)cc1OC (stereo not given)
Reply: No

Query: # strict comparison: is reported growth < 80%? input = O=C(Nc1cccc(-n2ccc3c(NC(=O)c4ccccc4)ncnc32)c1)Nc1ccc(Cl)c(C(F)(F)F)c1
Reply: Yes

***
Query: Consider Cc1cc[n+](CCCC[n+]2ccc(C)cc2)cc1 . Does its growth lie strictly below 80%?
Reply: No

Query: Identify whether the compound Cc1cc(N2CCOCC2)nc(N(CCNc2ccnc3cc(Cl)ccc23)Cc2ccco2)n1 records growth below 80%.
Reply: Yes

Query: Bench note: check whether COc1ccc(/C=C2/C(=O)Nc3cc(Cl)c(-c4csc(N)n4)cc32)cc1 shows growth below 80%
Reply: Yes

Query: growth under 80%? Item: CC[C@H]1[C@@H]2C=C[C@@H]3[C@H]4C/C=C\C(=O)NCCC[C@@H]5NC(=O)/C(=C(O)/C=C/[C@@H]4C[C@@H]3[C@H]2C[C@H]1C)C5=O
Reply: Yes

Query: Bench note: check whether CCCN1C(=O)CSC1=Nc1ccc2cc3ccc(N=C4SCC(=O)N4CCC)cc3nc2c1 shows growth below 80%
Reply: Yes

---

Tested on: SF-268 CNS
experiment.summary: NCI-60 one-dose screen, 48 h (100 = growth as untreated, 0 = no growth, -100 = all killed)
experimental.conditions: 10 µM unless noted
The panel holds about 83,000 compounds, 20% with a hit somewhere; the sample as a whole holds those more often.
Use 60% as the dividing line for growth, with the line itself on the fulfilled side and lower values as not fulfilled.

Query: Hi, just wondering whether CNCCCOc1c(Br)cc(CCNC(=O)/C(Cc2cc(Br)c(OC)c(Br)c2)=N/O)cc1Br shows growth of 60% or higher.
Reply: not fulfilled

---

System: SN12C renal
experiment.summary: NCI-60 one-dose screen, 48 h (100 = growth as untreated, 0 = no growth, -100 = all killed)
experimental.conditions: 10 µM unless noted
Description: Growth inhibition of the SN12C human tumor cell line is measured as a screen for anti-cancer activity. Cells are grown in 96 well plates and exposed to the test compound for 48 hours. Compounds are tested at a single concentration, which is 10^-5 M for most compounds. The reported endpoint is percent growth (GI% or GIPRCNT), where numbers from 0 - 100% represent growth inhibition, and numbers from -100% - 0 represent cell death. For example, a value of 40 represents 60% growth inhibition. […]
The panel holds about 83,000 compounds, 20% with a hit somewhere; the sample as a whole holds those more often.
Criterion: growth strictly under 80%. Met: yes. Not met: no.

Query: Record O=C(NCCNc1nccc(-c2c(-c3cccc(O)c3)nc3sccn23)n1)c1ccccc1 : is its growth strictly below 80%?
Reply: yes

Query: Record O=C(Nc1ccc(-n2cc(-c3ccncc3)c(-c3ccc(O)c(Cl)c3)n2)cc1)c1cc(Cl)cc(Cl)c1 : is its growth strictly below 80%?
Reply: yes

---
Query: Item c1cncc(-c2nc3ccccc3[nH]2)c1 : growth beneath 80%, strictly?
Reply: no

Query: I'd appreciate it if you could check whether CCc1c(C)c2cc3c(c(C)c2oc1=O)OCC(=O)N3 has growth smaller than 80%.
Reply: yes

Query: Please determine if c1ccc2nc(Cn3cc[n+](Cc4ccc5ccccc5n4)c3)ccc2c1 is below 80% in terms of growth.
Reply: yes

Query: Just wondering, is growth of CCn1cc(C(=O)O)c(=O)c2cc(F)c(N3CCN(CC(=O)Nc4ccc(C(C)=O)cc4)CC3)cc21 below 80%?
Reply: no

Query: Identify whether the molecule O=C(CSc1nnc(-c2cc3c([nH]c4ccccc43)c(-c3cccc(O)c3)n2)n1-c1ccccc1)c1ccccc1 records growth below 80%.
Reply: yes
